Assign Growth Rate to each entry below.
System: Fibroblast
protocol_summary: Incucyte cell viability with human fibroblast; note: unitless GR value; below 1 slowed growth and below 0 cell loss
Assay type: toxicity, cell-based
condition_info: 12 h, 10 µM, compound concentration 10 uM, replicate number 2
Form: value (number only, do not type unit).

Requested field: Growth Rate. Item: C=CC(=O)Nc1ccc(C(=O)Nc2n[nH]c3c2CN(C(=O)N[C@H](CN(C)C)c2ccccc2)C3(C)C)cc1
0.45

Moving on to Cc1cc2c(cc(C(=O)N[C@H](CO)c3ccc(S(=O)(=O)CC(=O)O)cc3)n2C)c(Cl)c1Cl
0.77

Then this compound: CCc1cnn2c(NCc3ccc[n+]([O-])c3)cc(N3CCCCC3CCO)nc12 (centres undefined)
-0.13

Also CN1CCN(c2ccc(-n3cc(-c4ccncc4OCC4CCNCC4)cn3)cc2)CC1 ?
0.22

Field entry: CCN(C(=O)CO)[C@H]1CN(/C(=N\C#N)Nc2cccc(OC(F)F)c2)N=C1c1ccc(Cl)c(Cl)c1
0.8

Same again, this time with Nc1ncnc2c1ccn2[C@@H]1O[C@H]([C@@H](O)c2ccccc2)[C@@H](O)[C@H]1O
0.57

Thanks! And CN1CCN(c2ccc(/C=C(\C#N)c3ccccc3Br)cc2)CC1.Cl.Cl ?
-0.18

Item: CN(C)C/C=C/C(=O)Nc1cc2c(Nc3ccc(F)c(Cl)c3)ncnc2cc1OC[C@@H]1CCCO1
-0.36

What do we get for COc1ccccc1S(=O)(=O)Nc1ccc2c(c1)CN(C)C(=O)N2 ?
0.42

----------
Tested on: U2OS
protocol_summary: Incucyte cell viability with U2OS; note: unitless GR value; below 1 slowed growth and below 0 cell loss
Format: toxicity, cell-based
condition_info: human, 18 h, 10 µM, compound concentration 10 uM, replicate number 1
Please respond with reported Growth Rate for every item in the list.
Answer with the value's number alone.

Fill in the blank: the reported Growth Rate of COC1(C#Cc2ccc(Cl)c(-c3ncc4c(n3)-c3sc(NC(C)=O)nc3CC4)c2)CCN(C)CC1 is ____.
0.64

Now give it for COCCNc1cc(NC(=O)N2CCCc3cc(CN4CCN(C)CC4=O)c(C=O)nc32)ncc1C#N [FGF401] too.
0.93

Moving on to the next compound: O=C(N[C@H]1CN2CCC1CC2)c1ccc(Cl)cc1 [PNU-282987]
0.75

Another: C[C@@H](CN1CCC(Cc2ccccc2)CC1)[C@@H](O)c1ccc(O)cc1
0.98

What do you have for Cc1cn([C@H](C)CC#N)c(=O)c2cc(Cn3nc(C(F)F)cc3Cl)nn12 ?
0.52

Param item: COc1cc2ncnc(Nc3ccc(F)c(Cl)c3)c2cc1OCCN(C)C[C@H](C)O
0.77

Check Cc1nc(Nc2cnn(C3CCNCC3)c2)nc2c1N(C)C(=O)c1cc3ccccc3cc1N2C too.
0.36

Same thing, different compound: O=C(O)Cc1cc(I)c(Oc2ccc(O)c(I)c2)c(I)c1 [TIRATRICOL]
0.97

// same read-out, input: Cc1csc(-c2nnc(Nc3ccc(Oc4ncccc4-c4ccnc(N)n4)cc3)c3ccccc23)c1 [AMG-900]
0.27

Another compound to check: CC(C)C[C@H](NC(=O)c1cc2ccccc2s1)C(=O)N1CCN(C(=O)[C@H](CO)NS(=O)(=O)c2ccc(Cl)cc2Cl)CC1
0.95

Try this compound too: CN(C)CCCN1c2ccccc2Sc2ccc(Cl)cc21.Cl [CHLORPROMAZINE HYDROCHLORIDE]
0.77

Lookup CC[C@H](CO)Nc1nc(Nc2cccc(-c3ccccn3)c2)c2ncn(C(C)C)c2n1.Cl.O
0.92

Also need Nc1ncc2c(n1)-c1c([nH]c3ccc(C4CC4)cc13)CCCC2 , thanks.
0.93

Also check CC(C)(c1ccc(OCc2cccc(COc3ccc(C(=N)N)cc3)c2)cc1)c1ccc(O[C@@H]2O[C@H](C(=O)O)[C@@H](O)[C@H](O)[C@H]2O)cc1.O=C(O)C(F)(F)F
-0.41

Same question, Cn1cc(C(=O)O)c2ccc(N3CCC(OCc4c(-c5c(Cl)cccc5Cl)noc4C4CC4)CC3)cc21 [TERN-101] this time
0.87

Do the same for CN(C(=O)CCOCCOCCOCCOCCNc1cccc2c1C(=O)N(C1CCC(=O)NC1=O)C2=O)[C@H]1CC[C@@]2(C)[C@@H](CC[C@@H]3[C@@H]2CC[C@]2(C)[C@@H](c4ccc5ccncc5c4)CC[C@@H]32)C1 (stereo partly specified) please
0.82
